measurement_target: horseradish peroxidase (HRP-type VIA) (Armoracia rusticana, UniProt P00433)
Construct: purchased Sigma-Aldrich
Sequence (P00433 31-338 limits assumed): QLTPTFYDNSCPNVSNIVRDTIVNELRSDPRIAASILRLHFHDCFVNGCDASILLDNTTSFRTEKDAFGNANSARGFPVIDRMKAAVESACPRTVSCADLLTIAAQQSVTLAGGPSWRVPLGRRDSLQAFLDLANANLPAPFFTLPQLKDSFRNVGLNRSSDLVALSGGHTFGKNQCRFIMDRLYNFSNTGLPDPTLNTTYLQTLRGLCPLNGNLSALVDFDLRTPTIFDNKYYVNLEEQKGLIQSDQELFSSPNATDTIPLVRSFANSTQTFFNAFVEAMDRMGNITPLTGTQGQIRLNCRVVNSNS
protocol_description: Dependence of the enhanced luminol-peroxide-peroxidase chemiluminescent reaction on secondary enhancer concentration
Assay type: biochemical
settings: pH 9.00 Tris buffer; initial light output, FIG. 4
readout_label: behaviour of enhancement effect with increasing secondary enhancer concentration

c1nc[nH]n1
tend to reach a plateau
Cn1ccnc1
tend to reach a plateau
c1c[nH]nn1
tend to reach a plateau
